molecular target: T1, human Claudin 18.2 (CLDN18.2) (human, UniProt P56856-2 1-261); assay: FACS Exp. 1, MFI ratio CHO-18.2 over CHO-18.1
T1 construct: whole, on cells; recombinantly expressed on CHO, HEK293, NCI-N87, NUGC4 or PANC-1 cells; also called CHO-CLDN18.2
Binary call on MFI_CHO-18.2/CHO-18.1 (@30 ug/ml) with cut-off 800: strictly below means Criterion met, and equality or higher means Criterion not met.

hz282-13 (antibody, V domains shown, humanized IgG; constant regions not specified) VH: QVQLQESGPGLVKPSETLSLTCTVSGFSLTSYNVYWIRQPPGKGLEWIGVIWNTGATRYNSALKSRVTISVDTSKNQFSLKLSSVTAADTAVYYCARDSAMPAIPFAYWGQGTLVTVSS VL: DIQMTQSPSSLSASVGDRVTITCKSSQSLFGSVRQKNYLAWYQQKPGKSPKLLIYLASTRESGVPDRFSGSGSGTDFTLTISSLQPEDFAKYYCQQYYDIPWTFGGGTKVEIK ... Criterion met

Say whether its MFI_CHO-18.2/CHO-18.1 (@30 ug/ml) is strictly beneath 800. Entry: hz282-4 (antibody, V domains shown, humanized IgG; constant regions not specified) VH: QVQLQESGPGLVKPSETLSLTCTVAGFSLTSYNVYWIRQPPGKGLEWIGVIWNTGATRYNSALKSRVTISKDTSKSQVSLKLSSVTAADTAVYYCARDSAMPAIPFAYWGQGTLVTVSS VL: DIVMTQSPDSLAVSLGERATINCKSSQSLFGSVRQKNYLAWYQQKPGQPPKLLIYLASTRESGVPDRFSGSGSGTDFTLTISSLQAEDVAVYYCQQYYDIPWTFGGGTKVEIK
Criterion not met

Say whether its MFI_CHO-18.2/CHO-18.1 (@30 ug/ml) is strictly beneath 800. Entry: hz282-6 (antibody, V domains shown, humanized IgG; constant regions not specified) VH: QVQLQESGPGLVKPSETLSLTCTVSGFSLTSYNVYWIRQPPGKGLEWIGVIWNTGATRYNSALKSRVTISKDTSKNQVSLKLSSVTAADTAVYYCARDSAMPAIPFAYWGQGTLVTVSS VL: DIVMTQSPDSLAVSLGERATINCKSSQSLFGSVRQKNYLAWYQQKPGQSPKLLIYLASTRESGVPDRFSGSGSGTDFTLTISSLQAEDVAKYYCQQYYDIPWTFGGGTKVEIK
Criterion met

Data provenance is patent US20210380680A1.
